// provenance: paper PMC9161374

Papp B→A values, listed per item
- Measurement description: Permeability and efflux ratio in Caco-2 cells
- Assay type: in vitro ADME
- Condition parameters: human, BA

Illustrative cases are given below, each with its answer.
Entry N#C[C@@]1(c2ccc3c(N)ncnn23)O[C@H](CO)[C@@H](O)[C@H]1O [GS-441524, reference compound] has what Papp B→A?
1.2 ×10⁻⁶ cm/s

Give its Papp B→A value. Item: CC(C)[C@H](N)C(=O)OC[C@H]1O[C@@](C#N)(c2ccc3c(N)ncnn23)[C@H](O)[C@@H]1O [ATV020]
0.22 ×10⁻⁶ cm/s

Name the recorded Papp B→A for CC(C)[C@@H](N)C(=O)OC[C@H]1O[C@@](C#N)(c2ccc3c(N)ncnn23)[C@H](O)[C@@H]1O [ATV019] .
0.68 ×10⁻⁶ cm/s

# input for lookup
I am curious: what Papp B→A value has been reported for CC(C)C(=O)OC[C@H]1O[C@@](C#N)(c2ccc3c(N)ncnn23)[C@H](O)[C@@H]1O [ATV006] ?
0.87 ×10⁻⁶ cm/s

---

- Measurement description: Permeability and efflux ratio in Caco-2 cells
- Assay type: in vitro ADME
- Condition parameters: human, AB
Measured attribute: Papp A→B (nm/s)
Quick note: give the figure in nm/s, leave out the unit.

Here is how some compounds turned out for Papp A→B.
// query Papp A→B value for entry CC(C)[C@@H](N)C(=O)OC[C@H]1O[C@@](C#N)(c2ccc3c(N)ncnn23)[C@H](O)[C@@H]1O
2.8

Using the record for CC(C)C(=O)OC[C@H]1O[C@@](C#N)(c2ccc3c(N)ncnn23)[C@H](O)[C@@H]1O , report its Papp A→B.
5.1

---
Item CC(C)[C@H](N)C(=O)OC[C@H]1O[C@@](C#N)(c2ccc3c(N)ncnn23)[C@H](O)[C@@H]1O has what recorded Papp A→B?
1.7

Which value of Papp A→B has been reported for N#C[C@@]1(c2ccc3c(N)ncnn23)O[C@H](CO)[C@@H](O)[C@H]1O [GS-441524, reference compound] in the records?
12.2

---

- Test system: SARS-CoV-2 (B.1)
- Measurement description: Anti-SARS-CoV-2 activity in Vero E6 cells (viral yield by qRT-PCR)
- Assay type: cell-based
- Condition parameters: Severe acute respiratory syndrome coronavirus 2, Vero C1008, 5 μM; replicates; sheet Fig.S3
Reported inhibition at 5 µM is given for each of the following compounds.
Write it as a number; the unit % goes unstated.

Some compounds with recorded inhibition at 5 µM:
Form: Entry = CCCC(=O)OC[C@H]1O[C@@](C#N)(c2ccc3c(N)ncnn23)[C@H](O)[C@@H]1O [ATV009] | System = SARS-CoV-2 (B.1) | inhibition at 5 µM = ____
90.9

Could you share what inhibition at 5 µM was measured for N#C[C@@]1(c2ccc3c(N)ncnn23)O[C@H](CO)[C@@H](O)[C@H]1O [GS-441524, reference compound] , tested on SARS-CoV-2 (B.1)?
85.9

Entry CCC(CC)C(=O)OC[C@H]1O[C@@](C#N)(c2ccc3c(N)ncnn23)[C@H](O)[C@@H]1O [ATV011] , system SARS-CoV-2 (B.1): what inhibition at 5 µM was measured?
93.5

Query for SARS-CoV-2 (B.1): what inhibition at 5 µM does the record show for N#C[C@@]1(c2ccc3c(N)ncnn23)O[C@H](COC(=O)c2ccccc2)[C@@H](O)[C@H]1O [ATV013] ?
93.6

Request: inhibition at 5 µM, test system SARS-CoV-2 (B.1), entry CC(C)C(=O)OC[C@H]1O[C@@](C#N)(c2ccc3c(N)ncnn23)[C@H](O)[C@@H]1O [ATV006]
93.3

Next:
Test system SARS-CoV-2 (B.1); read-out inhibition at 5 µM; what value for CC(C)CC(=O)OC[C@H]1O[C@@](C#N)(c2ccc3c(N)ncnn23)[C@H](O)[C@@H]1O [ATV017] ?
92.3

---

Recorded % Inhibition by entry
- Tested on: SARS-CoV-2 (Delta, B.1.617.2)
- Measurement description: microbe, parasite or virus in culture
- Assay type: cell-based
- Condition parameters: delta, 50 uM, Vero E6, replicates
Provide the reading as a plain figure in %.

Example entries and their recorded answers appear below.
If you can, please state the reported % Inhibition value of CC(C)C(=O)OC[C@H]1O[C@@](C#N)(c2ccc3c(N)ncnn23)[C@H](O)[C@@H]1O [ATV006] .
99.3835

Record request: % Inhibition value, item CCCC(=O)OC[C@H]1O[C@@](C#N)(c2ccc3c(N)ncnn23)[C@H](O)[C@@H]1O [ATV009]
99.5907

Give the measured % Inhibition of N#C[C@@]1(c2ccc3c(N)ncnn23)O[C@H](CO)[C@@H](O)[C@H]1O [GS-441524, reference compound] .
98.9856

Using the record for CC(C)CC(=O)OC[C@H]1O[C@@](C#N)(c2ccc3c(N)ncnn23)[C@H](O)[C@@H]1O [ATV017] , report its % Inhibition.
99.5879

So what's the measured % Inhibition for this one? N#C[C@@]1(c2ccc3c(N)ncnn23)O[C@H](COC(=O)c2ccccc2)[C@@H](O)[C@H]1O [ATV013]
99.9058

Consider now this further compound.
% Inhibition lookup needed for CCC(CC)C(=O)OC[C@H]1O[C@@](C#N)(c2ccc3c(N)ncnn23)[C@H](O)[C@@H]1O [ATV011] , thanks.
99.7579

---

// efflux ratio lookup, one value per entry
- Measurement description: Permeability and efflux ratio in Caco-2 cells
- Assay type: in vitro ADME
- Condition parameters: human

Which value of efflux ratio has been reported for CC(C)[C@H](N)C(=O)OC[C@H]1O[C@@](C#N)(c2ccc3c(N)ncnn23)[C@H](O)[C@@H]1O [ATV020] in the records?
1.28

---
Could you share which efflux ratio value was measured for CC(C)[C@@H](N)C(=O)OC[C@H]1O[C@@](C#N)(c2ccc3c(N)ncnn23)[C@H](O)[C@@H]1O [ATV019] ?
2.47

# get_value(readout='efflux ratio', item= CC(C)C(=O)OC[C@H]1O[C@@](C#N)(c2ccc3c(N)ncnn23)[C@H](O)[C@@H]1O [ATV006] )
1.7
